Listing: TGI of selected molecules
system: SK-OV-3 ovarian; experiment: NCI tumour cell line growth inhibition, 48 h

Which measured TGI value corresponds to COc1ccc(CN2CCc3c(Cl)nc(N)nc3C2=O)c(OC)c1 ?
88 µM

Check CCNc1nc(N)c(C(=O)c2ccc(Cl)cc2)s1 too.
> 100 µM

Check CC(=O)Nc1ccc2c(C(=O)O)c(C)c(=O)[nH]c2n1 too.
> 100 µM

Check CC(=O)Nc1ccc(S(=O)(=O)Nc2nnc(S(N)(=O)=O)s2)cc1 too.
> 100 µM

Check CN(C)CCCn1cnc2ncccc2c1=O too.
> 100 µM

Check CCc1ccc(Cc2ccc(CC)c(NC(=O)C(=O)Cc3nc4ccccc4nc3C)c2CC)c(CC)c1NC(=O)C(=O)Cc1nc2ccccc2nc1C too.
> 100 µM

Further cases:
Which measured TGI value corresponds to O=C(O)Cc1ccc(Oc2nc3ccccc3nc2-c2cccs2)cc1 ?
> 100 µM

###

Listing: TGI of selected compounds
system: RPMI-8226 leukemia; test: NCI tumour cell line growth inhibition, 48 h

Which measured TGI value corresponds to CN(Cc1c2ccccc2cc2ccccc12)S(=O)(=O)c1ccc(-c2c3nc(c(-c4ccc(S(=O)(=O)N(C)Cc5c6ccccc6cc6ccccc56)cc4)c4ccc([nH]4)c(-c4ccc(S(=O)(=O)N(C)Cc5c6ccccc6cc6ccccc56)cc4)c4nc(c(-c5ccc(S(=O)(=O)N(C)Cc6c7ccccc7cc7ccccc67)cc5)c5ccc2[nH]5)C=C4)C=C3)cc1 ?
> 100 µM

Check COc1ccc(CCNc2nc3ccccc3c3[nH]c4ccccc4c23)cc1OC too.
5.24 µM

Would you kindly look at the next entry?
Which measured TGI value corresponds to O=C(Nc1nc2ncn(CCOC(=O)c3ccccc3)c2c(=O)[nH]1)c1ccccc1 ?
> 100 µM

###

tested on: MALME-3M melanoma; assay: NCI tumour cell line growth inhibition, 48 h
Listing: TGI of selected compounds

Solved cases (10 shown):
Which measured TGI value corresponds to Cc1c(CNc2ccc(Cl)c(C(=O)NC(CC(=O)O)C(=O)O)c2)ccc2nc(N)nc(N)c12 (configuration not stated) ?
692 µM

Check Cc1cccc2c1C(=O)C1(Cc3ccccc3C1=O)C2 (configuration not stated) too.
> 100 µM

Check COC(=O)C(=O)C(C#N)c1cccc2ccccc12 (configuration not stated) too.
> 100 µM

Check CSc1nc2ccccc2c(=O)n1/N=C1\C(=O)N(CN2CCOCC2)c2ccc(Cl)cc21 too.
> 100 µM

Check O=C(CCCCCCc1nc2ccc(Br)cc2[nH]1)NO too.
0.813 µM

Check C#Cc1cccc(NC(=O)Nc2ccccc2NC(=O)CCl)c1 too.
56.7 µM

Check COc1cc(Oc2nc3ccccc3nc2C(=O)O)cc(OC)c1OC too.
> 100 µM

Check [O-][n+]1onc2c3nn(-c4ccccc4)nc3ccc21 too.
> 100 µM

Check NNC(=O)CC(=O)Nc1ccc(Cl)cc1 too.
> 100 µM

Check CCNC(=S)N/N=C/c1cc(OC)ccc1O too.
> 100 µM

Further cases:
Which measured TGI value corresponds to O=C(O)Cc1ccc(Oc2nc3ccccc3nc2-c2cccs2)cc1 ?
> 100 µM

Check Nn1c(Cc2ccc(Cl)cc2)n[nH]c1=O too.
> 100 µM

###

tested on: NCI-H226 lung; assay: NCI tumour cell line growth inhibition, 48 h
Listing: GI50 of selected molecules

Which measured GI50 value corresponds to CCN1CCC(C(=O)Nc2n[nH]c3nnc(-c4cccc(F)c4F)cc23)CC1 ?
3.41 µM

Check COc1cc(-c2cc(-c3ccc(N(C)C)cc3)nc(N3CCC(O)CC3)c2C#N)cc(OC)c1OC too.
0.717 µM

Check N#Cc1c(N)nn(C(=O)c2ccc(NC(=O)c3ccccn3)cc2)c1-c1ccc(Cl)cc1 too.
3.08 µM

Check COc1ccc(/C=C2/SC(=Nc3c(C)nn(-c4ccccc4)c3N)NC2=O)cc1 too.
8.28 µM

Further cases:
Which measured GI50 value corresponds to COc1ccc(CCNc2nc3ccccc3c3[nH]c4ccccc4c23)cc1OC ?
7.82 µM

Check COc1ccccc1/C=C1\COc2ccc(O)c(O)c2C1=O too.
1.9 µM

Check COc1ccc(CN2CCc3c(Cl)nc(N)nc3C2=O)c(OC)c1 too.
18.3 µM

Check Cc1ncc(C(=O)Nc2ccc(CN3CCN(C)CC3)c(C(F)(F)F)c2)cc1C#Cc1c(N)ncc2ccc(C#N)cc12 too.
0.451 µM

###

test system: EKVX NSCLC; experiment: NCI tumour cell line growth inhibition, 48 h
Measurement Kind: TGI

Which measured TGI value corresponds to COc1ccc(C(=O)c2cc3c(N)c(C(=O)Nc4cccc(Cl)c4)sc3nc2C)cc1 ?
> 33.3 µM

Check CCc1cc(C(N)=O)ccc1-n1nc(C(C)C)c2c(-n3cnc(-c4cnn(C)c4)c3)ccnc21 too.
> 100 µM

Check CCc1ccc(Cc2ccc(CC)c(NC(=O)C(=O)Cc3nc4ccccc4nc3C)c2CC)c(CC)c1NC(=O)C(=O)Cc1nc2ccccc2nc1C too.
> 100 µM

Check O=C(Nc1ccccc1)c1cc2c(cc1Cl)Sc1nccn1S2(=O)=O too.
60.5 µM

Check COC1OC(OC)C2C(c3c(C)cc(C)cc3C)=NOC12 (centres undefined) too.
> 100 µM

Further cases:
Which measured TGI value corresponds to CCN(CC)CCCCCCCCNc1c2ccc(Cl)cc2nc2ccc(OC)cc12 ?
6.13 µM

Check CCOC(=O)C1=CN=C2C(=O)N(c3ccccc3)N(C)C2(C)C1=N (centres undefined) too.
> 100 µM

Check COc1ccc2c(c1)OCC1(O)Cc3ccccc3OC21 (centres undefined) too.
> 100 µM

Check C=CCNC1=C2C[C@@H](C)C[C@@H](OC)C(OC(=O)CCCN(C)C)[C@H](C)/C=C(\C)[C@@H](OC(N)=O)[C@H](OC)/C=C\C=C(/C)C(=O)NC(=CC1=O)C2=O (some centres undefined) too.
26.1 µM

###

test system: U251 CNS
Choose the fitting class; nothing outside active, inactive is accepted.

Please review the entries below; each comes with its answer.
# outcome recorded in this test, key = O=C(Nc1ccc(Cl)c(Cl)c1)Nc1ccc(Cl)c([N+](=O)[O-])c1
inactive

Check O=C(CCCCCCc1nc2ccc(Br)cc2[nH]1)NO too.
active

Check CC(=O)O[C@@H]1C=CC(=O)C2(CC(=O)O[C@@H]2/C=C(\C)CCC=C(C)C)C1 (stereo partly specified) too.
inactive

Further cases:
# outcome recorded in this test, key = COc1ccc(C(=O)/C=C/c2ccc(Cl)cc2)cc1S(N)(=O)=O
inactive

Check Clc1ccc(Cl)c(N/N=C\c2c[nH]c3ccccc23)c1 too.
inactive

Check Cn1cc(-c2ccc3cc(-c4ccc(CC(=O)Nc5cc(C(C)(C)C)nn5C)cc4)cnc3c2)cn1 too.
active

###

test system: BT-549 breast; assay: NCI tumour cell line growth inhibition, 48 h
Measurement Kind: TGI

Solved cases (10 shown):
Which measured TGI value corresponds to O=C1CCCC1C(=O)Nc1ccc2ccccc2c1 (stereo unspecified) ?
> 100 µM

Check CC(C)CC(=O)NC(Nc1ccc(S(=O)(=O)Nc2ncccn2)cc1)(C(F)(F)F)C(F)(F)F too.
> 100 µM

Check O=P(O)(O)OC1C(OP(=O)(O)O)C(OP(=O)(O)O)C(OP(=O)(O)O)C(OP(=O)(O)O)C1OP(=O)(O)O (stereo unspecified) too.
> 2000 µM

Check O=C1COC(c2ccccc2O)=NN1CCCN1CCCC1 too.
> 100 µM

Check CCNc1nc(N)c(C(=O)c2ccc(Cl)cc2)s1 too.
> 100 µM

Check NNC(=O)CC(=O)Nc1ccc(Cl)cc1 too.
> 100 µM

Check CSC1=Nc2ccccc2-c2nc(-c3ccccc3)cc(-c3ccccc3)c2C1 too.
> 100 µM

Check Cn1ccnc1CCc1ccc(F)cc1F too.
> 100 µM

Check COC(=O)c1c(OC(C)=O)ccc2c1c1c(OC(C)=O)c3ccccc3c(OC(C)=O)c1n2Cc1cc(OC)cc(OC)c1 too.
82.1 µM

Check C/C(O)=C/c1nc2ccccc2nc1/C=C(/C)O too.
> 100 µM

Would you kindly look at the next entry?
Which measured TGI value corresponds to CC1(C)CCC[C@]2(C)[C@@H]1CC[C@@]13O[C@@H]1C1=C(CO)C(=O)O[C@]14O[C@@H]4[C@@H]23 ?
31.8 µM

###

tested on: PC-3 prostate; assay: NCI tumour cell line growth inhibition, 48 h
Measurement Kind: TGI

Solved cases (5 shown):
Which measured TGI value corresponds to CCNC(=S)N/N=C/c1cc(OC)ccc1O ?
> 100 µM

Check Cc1cccc2c1C(=O)C1(Cc3ccccc3C1=O)C2 (centres undefined) too.
> 100 µM

Check CC1(C)O[C@H](C(=O)O)[C@@H](C(=O)O)O1 too.
> 100 µM

Check CC/C(Cl)=N\OC(=O)Nc1ccc(OC)cc1 too.
29.5 µM

Check O=S(=O)(c1cc(Cl)ccc1Cl)N1CCN(S(=O)(=O)c2cc(Cl)ccc2Cl)CC1 too.
> 100 µM

Would you kindly look at the next entry?
Which measured TGI value corresponds to Brc1ccc2c(-c3nc(-c4c[nH]c5ccccc45)cs3)c[nH]c2c1 ?
> 91.2 µM
